- method_description: soluble fraction after stress (log2 fold change); higher = more stays soluble; pooled small domains, quantitative proteomics;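 further: 20 min heating vs room temperature control held 20 min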
- conditions: stress: 75 degC
Assign criterion met whenever soluble fraction (log2) does not fall below -0.9; assign criterion not met whenever it does.

Use these answered entries as a reference point.
- item_sequence: "HMKKIFIDAPLDTMITIPKDTTHHLLTVFRHKMEKPVLVGGSDGRTGVYQIQDVVDGEASAKLVGDIQ"
  category: "criterion met"
- item_sequence: "HMSSEQRSVLFPNLAETDKVAVIEALMAAGVNARVDSASGRVTVPSGDYYNSRAILAAQGLPTS"
  category: "criterion met"
- item_sequence: "HMEPVQFIQFKIPDGHPWSGQLLREVRLPPGTLVVLLKHDGKNIIPNGETPLLAGDSVILSAASPT"
  category: "criterion met"
- item_sequence: "HMDAMQAFPNPTVDEIHFVTPTTGRVYNAHGQLVMVLKNAQLVNVRQWSAGQYVIVREDGYAVRWIK"
  category: "criterion not met"
- item_sequence: "HMRIQTVDYNTFISMVEDGKVDAAEIQQQENRILFSDQDQKVYKTAMVPDDDLTQRLLDAGVSTNG"
  category: "criterion met"

Qu. Form field: soluble fraction (log2) at least -0.9? Entry: HMEVAAAENYRSKLSSFAKDTISVWQTELLLGTISDDDKASLTEWMAYIKALQVVDTSDPESITWPTEPT
Ans. criterion not met

Qu. Form field: soluble fraction (log2) at least -0.9? Entry: HMARYSMLEEQLLQLINKHGTMSTPKLVEATGAPRSTVTYQLRKLLESGTIERTQPARSPKQSYRIKS
Ans. criterion met

###

- method_description: soluble fraction after stress (log2 fold change); higher = more stays soluble; pooled small domains, quantitative proteomics
- conditions: stress: 75 degC
Assign MET whenever soluble fraction (log2) does not fall below -1; assign NOT MET whenever it does.

- item_sequence: "HMDSTLDLVATQGGRLDQVLAEMIPEHSRNRLQHWIKAGRVLVDGQPVLEPKHKIYGGEDLAVRVD"
  category: "MET"
- item_sequence: "HMHRFAVLDTVREVAAGGVAATLSIGVGRDADSFDALFKNASMALEMALSRGGDQAVVKDRMNFQFYGG"
  category: "MET"
- item_sequence: "HMDIRMLLSDREEEIMILLSKGLSISEAANRMQIGQASAATYLNRARRKLKAETVRQAVAIWTGD"
  category: "NOT MET"
- item_sequence: "HMRMTRQRKVILEELGKVYTHPTADEIYTMVKEKLPNISLGTVYRNLDLLAENNQVLKLETAGNIRRYD"
  category: "MET"
- item_sequence: "HMQGWREWDYSADLYINARVGGKIEPTENSPISRVYELDEPVSVVAFTSTRYFKLSSGDYIFAEYLSAQKV"
  category: "NOT MET"

Qu. Form field: soluble fraction (log2) at least -1? Entry: HMIDAKTTLQELTQKSGKKPEYRLIKIEGPDHLRRFTVEVFIDGQSMGTGTGHSKKEAEQNAANFALKNLQ
Ans. MET

Qu. Form field: soluble fraction (log2) at least -1? Entry: HMAKIDSRKALIDQLTTTFTRAQLEELITKNELSTDARFFLSQWNAKGWIRKTAKNVYEKLR
Ans. MET

Qu. Form field: soluble fraction (log2) at least -1? Entry: HMFHDPTMEETLINLKGITNEVLSLLSSSKIKKLEDLAEMSVPELRDIVENISDEEASALIMEARKPWF
Ans. MET
